# system_under_test: PHD2 enzyme (residues 181-417) (Homo sapiens (Human), UniProt Q9GZT9)
# Sequence (Q9GZT9 181-417): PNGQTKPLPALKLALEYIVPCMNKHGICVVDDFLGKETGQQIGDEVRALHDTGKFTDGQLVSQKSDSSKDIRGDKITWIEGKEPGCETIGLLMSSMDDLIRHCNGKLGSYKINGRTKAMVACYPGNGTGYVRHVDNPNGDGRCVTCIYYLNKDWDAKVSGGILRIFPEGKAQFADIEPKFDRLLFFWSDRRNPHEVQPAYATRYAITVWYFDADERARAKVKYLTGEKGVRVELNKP
# assay_notes: Inhibition of PHD enzyme (LC/MS peptide hydroxylation assay)
# Assay type: biochemical
# experimental_parameters: PHD2 (residues 181-417) 5 nM, 60 min pre-incubation; -log(IC50), IC50 molar
Label yes (1) for high-side PHD Inhibition (pIC50) (at or above 8) and no (0) for low-side PHD Inhibition (pIC50) (below it).

Cc1cc(C#N)ccc1-c1cnn(-c2ccc(C(=O)N3CCC(N4CCOCC4)C3)cn2)c1O (centres unmarked) [Example 347] = yes (1)
Cc1cc(C#N)ccc1-c1cnn(-c2ccc(C(=O)N3CCC[C@H](N(C)C)C3)cn2)c1O [Example 376] = no (0)
Cc1c(-c2cnn(-c3ccc(C(=O)N4CCC[C@H](N(C)CC(F)(F)F)C4)cn3)c2O)ccc(C#N)c1F [Example 332] = yes (1)
N#Cc1ccc(-c2cnn(-c3ccc(C(=O)NCC4(F)CCCCC4)cn3)c2O)cc1 [Example 263] = no (0)
Cc1cc(C#N)ccc1-c1cnn(-c2ccc(C(=O)N3CCN(CC(F)(F)F)CC3)cn2)c1O [Example 312] = yes (1)
N#Cc1ccc(-c2cnn(-c3ccc(C(=O)N4CCC(N5CCOCC5)C4)cn3)c2O)cc1 (centres unmarked) [Example 351] = no (0)
COCCCCNC(=O)c1ccc(-n2ncc(-c3ccc(C#N)cc3C)c2O)nc1 [Example 179] = yes (1)

----------
Entries annotated with measured PHD Inhibition (pIC50)
# system_under_test: PHD2 enzyme (residues 181-417) (Homo sapiens (Human))
# assay_notes: Inhibition of PHD enzyme (LC/MS peptide hydroxylation assay)
# Format: biochemical
# experimental_parameters: PHD2 (residues 181-417) 5 nM, 60 min pre-incubation; -log(IC50), IC50 molar
assay_readout: PHD Inhibition (pIC50)

CNC(=O)c1ccc(-n2ncc(-c3ccc(C#N)cc3C)c2O)nc1 = 8.4
Cc1cc(C#N)ccc1-c1cnn(-c2ccc(C(=O)N3CC[C@@H]4CN(C)C[C@@H]4C3)cn2)c1O = 7.87
Cc1cc(C#N)ccc1-c1cnn(-c2ccc(C(=O)NCCCN3CCCCC3)cn2)c1O = 7.9
Cc1cc(C#N)ccc1-c1cnn(-c2ccc(C(=O)N3CCN(C)CC3)cn2)c1O = 8.33
COCC1(NC(=O)c2ccc(-n3ncc(-c4ccc(C#N)cc4)c3O)nc2)CCCC1 = 7.28
Cc1c(-c2cnn(-c3ccc(C(=O)N4CCC[C@@H](N(C)C)C4)cn3)c2O)ccc(C#N)c1F = 8.17
Cc1cc(C#N)ccc1-c1cnn(-c2ccc(C(=O)N3CC(N(C)C)C3)cn2)c1O = 8.35
CCCN1CCC(N(C)C(=O)c2ccc(-n3ncc(-c4ccc(C#N)cc4C)c3O)nc2)CC1 = 8.22
COCCC1(NC(=O)c2ccc(-n3ncc(-c4ccnc(OC)c4)c3O)nc2)CC1 = 6.98
COCCC(C)(C)NC(=O)c1ccc(-n2ncc(-c3ccc(C#N)cc3C)c2O)nc1 = 7.11
Cc1cc(C#N)ccc1-c1cnn(-c2ccc(C(=O)N3CCC4(CN(C)C4)C3)cn2)c1O = 8.05
Cc1cc(C#N)ccc1-c1cnn(-c2ccc(C(=O)N(C)C3CN(C)C3)cn2)c1O = 8.02
COC(C)(C)CNC(=O)c1ccc(-n2ncc(-c3ccc(C#N)cc3)c2O)nc1 = 7.2
CCOCCCNC(=O)c1ccc(-n2ncc(-c3ccc(C#N)cc3)c2O)nc1 = 7.23
COCC(NC(=O)c1ccc(-n2ncc(-c3ccc(C#N)cc3)c2O)nc1)C(C)C (centres unmarked) = 7.47
Cc1cc(C#N)ccc1-c1cnn(-c2ccc(C(=O)NC3CC3)cn2)c1O = 7.18
Cc1cc(C#N)ccc1-c1cnn(-c2ccc(C(=O)N3CCN(C4CCC4)CC3)cn2)c1O = 8.00

----------
# system_under_test: PHD2 enzyme (residues 181-417) (Homo sapiens (Human), UniProt Q9GZT9)
# assay_notes: Inhibition of PHD enzyme (LC/MS peptide hydroxylation assay)
# Assay type: biochemical
# experimental_parameters: PHD2 (residues 181-417) 5 nM, 60 min pre-incubation; -log(IC50), IC50 molar
Entries annotated with measured PHD Inhibition (pIC50)
assay_readout: PHD Inhibition (pIC50)

Cc1cc(C#N)ccc1-c1cnn(-c2ccc(C(=O)N3CCC(N(C)C)CC3)cn2)c1O = 7.78
COCCCN(C)C(=O)c1ccc(-n2ncc(-c3ccc(C#N)cc3C)c2O)nc1 = 8.2
COc1cc(-c2cnn(-c3ccc(C(=O)NCCCN(C)C)cn3)c2O)ccn1 = 7.3
Cc1cc(C#N)ccc1-c1cnn(-c2ccc(C(=O)N3CCN(C)[C@@H](C)C3)cn2)c1O = 8.26
CN(C)CC(C)(C)NC(=O)c1ccc(-n2ncc(-c3ccc(C#N)cc3)c2O)nc1 = 7.7
C[C@H](NC(=O)c1ccc(-n2ncc(-c3ccc(C#N)cc3)c2O)nc1)C(F)(F)F = 7.18
Cc1c(-c2cnn(-c3ccc(C(=O)N4CCN(C)[C@@H](C)C4)cn3)c2O)ccc(C#N)c1F = 8.50
Cc1c(-c2cnn(-c3ccc(C(=O)N4CC(N5CCCCC5)C4)cn3)c2O)ccc(C#N)c1F = 8.43
CCN1CCN(C(=O)c2ccc(-n3ncc(-c4ccc(C#N)cc4C)c3O)nc2)CC1(C)C = 8.21
N#Cc1ccc(-c2cnn(-c3ccc(C(=O)NC4CC4)cn3)c2O)cc1 = 7.18
COCCCN(C)C(=O)c1ccc(-n2ncc(-c3ccc(C#N)c(F)c3C)c2O)nc1 = 8.33
N#Cc1cnn(-c2cnn(-c3ccc(C(=O)NCc4ccccc4)cn3)c2O)c1 = 6.97
CN(C)c1cc(-c2cnn(-c3ccc(C(=O)NCC4CCOCC4)cn3)c2O)ccn1 = 6.21
COCCNC(=O)c1ccc(-n2ncc(-c3ccc(C#N)cc3)c2O)nc1 = 7.6
CCN1CCN(C(=O)c2ccc(-n3ncc(-c4cc(F)c(C#N)cc4C)c3O)nc2)[C@@H](C)C1 = 8.20
Cc1cc(C#N)ccc1-c1cnn(-c2ccc(C(=O)NCCC3CCCO3)cn2)c1O (centres unmarked) = 8.4
Cc1cc(C#N)ccc1-c1cnn(-c2ccc(C(=O)NCCCCO)cn2)c1O = 7.27

----------
# system_under_test: PHD2 enzyme (residues 181-417) (Homo sapiens (Human))
# assay_notes: Inhibition of PHD enzyme (LC/MS peptide hydroxylation assay)
# Format: biochemical
# experimental_parameters: PHD2 (residues 181-417) 5 nM, 60 min pre-incubation; -log(IC50), IC50 molar
assay_readout: PHD Inhibition (pIC50)

CC1(NC(=O)c2ccc(-n3ncc(-c4ccc(C#N)cc4)c3O)nc2)CC1 [Example 198] = 7.35
Cc1cc(C#N)ccc1-c1cnn(-c2ccc(C(=O)N3C[C@H]4CN(C)C[C@H]4C3)cn2)c1O [Example 292] = 8.04
Cc1cc(C#N)ccc1-c1cnn(-c2ccc(C(=O)N[C@H](C)C3CC3)cn2)c1O [Example 138A] = 6.95
C[C@@H](NC(=O)c1ccc(-n2ncc(-c3ccc(C#N)cc3)c2O)nc1)C(F)(F)F [Example 170] = 7.29
N#Cc1ccc(-c2cnn(-c3ccc(C(=O)NCCCc4nccs4)cn3)c2O)cc1 [Example 116] = 7.42
CCCN1CCN(C(=O)c2ccc(-n3ncc(-c4ccc(C#N)cc4C)c3O)nc2)CC1 [Example 415] = 8.41
COc1cc(-c2cnn(-c3ccc(C(=O)NCC4CCOCC4)cn3)c2O)ccc1C#N [Example 253] = 8.3
COC1CCN(C(=O)c2ccc(-n3ncc(-c4ccc(C#N)cc4C)c3O)nc2)CC1 [Example 249] = 8.3
Cc1cc(C#N)ccc1-c1cnn(-c2ccc(C(=O)NC3CCN(C4CC4)CC3)cn2)c1O [Example 140] = 8.1
Cc1cc(C#N)ccc1-c1cnn(-c2ccc(C(=O)N3CC(N(C)C4CC4)C3)cn2)c1O [Example 298] = 8.18
COc1cc(-c2cnn(-c3ccc(C(=O)NC4CC4)cn3)c2O)ccn1 [Example 204] = 7.08
COCC[C@@H](C)NC(=O)c1ccc(-n2ncc(-c3ccc(C#N)cc3C)c2O)nc1 [Example 359] = 8.45
CN1CCC(CNC(=O)c2ccc(-n3ncc(-c4ccc(C#N)cc4)c3O)nc2)CC1 [Example 57] = 6.98
COCCCN(C)C(=O)c1ccc(-n2ncc(-c3ccc(C#N)cc3OC)c2O)nc1 [Example 240] = 6.63
Cc1cc(C#N)ccc1-c1cnn(-c2ccc(C(=O)NCCCn3ccnc3)cn2)c1O [Example 106] = 8
CCCN1CCN(C(=O)c2ccc(-n3ncc(-c4ccc(C#N)cc4C)c3O)nc2)CC1 [Example 283] = 8.60
CN1CCC(NC(=O)c2ccc(-n3ncc(-c4ccc(C#N)cc4)c3O)nc2)CC1 [Example 270] = 7.34

----------
# system_under_test: PHD2 enzyme (residues 181-417) (Homo sapiens (Human), UniProt Q9GZT9)
# assay_notes: Inhibition of PHD enzyme (LC/MS peptide hydroxylation assay)
# Assay type: biochemical
# experimental_parameters: PHD2 (residues 181-417) 5 nM, 60 min pre-incubation; -log(IC50), IC50 molar
Entries annotated with measured PHD Inhibition (pIC50)
assay_readout: PHD Inhibition (pIC50)

N#Cc1cnn(-c2cnn(-c3ccc(C(=O)NCC4CCOCC4)cn3)c2O)c1 = 6.71
N#Cc1ccc(-c2cnn(-c3ccc(C(=O)N[C@H]4CC[C@H](O)C4)cn3)c2O)cc1 = 7.39
N#Cc1ccc(-c2cnn(-c3ccc(C(=O)NC4CCN(C5CC5)CC4)cn3)c2O)cc1 = 7.08
Cc1cc(C#N)ccc1-c1cnn(-c2ccc(C(=O)N3CCC(CN(C)C)CC3)cn2)c1O = 7.98
Cc1cc(C#N)ccc1-c1cnn(-c2ccc(C(=O)N3CCN(CCN(C)C)CC3)cn2)c1O = 7.99
N#Cc1ccc(-c2cnn(-c3ccc(C(=O)NCc4ccccc4)cn3)c2O)c(F)c1 = 7.13
COCC1(NC(=O)c2ccc(-n3ncc(-c4ccnc(OC)c4)c3O)nc2)CC1 = 6.89
COc1cc(-c2cnn(-c3ccc(C(=O)NC4(C5CCOCC5)CC4)cn3)c2O)ccn1 = 6.7
